Test: bis-ANS fluorescence titration of receptor ECDs
Format: binding
Details: value in parenthesis
metric.name: Relative K′ of bis-ANS (Hill Eq.), normalized to wild-type

molecule	assay.result
S107P: BMPR-II ECD naturally occurring single-amino-acid-substitution mutant S107P (protein, left off: TRX, N-terminal, cleaved | His6, C-terminal, state not stated) ASQNQERLCAFKDPYQQDLGIGESRISHENGTILCSKGSTCYGLWEKSKGDINLVKQGCWSHIGDPQECHYEECVVTTTPPPIQNGTYRFCCCSTDLCNVNFTENFPPPDTTPLSPPHSFNRDET	1.0
Y40P: BMPR-II ECD single-amino-acid-substitution mutant Y40P (protein, left off: TRX, N-terminal, cleaved | His6, C-terminal, state not stated) ASQNQERLCAFKDPPQQDLGIGESRISHENGTILCSKGSTCYGLWEKSKGDINLVKQGCWSHIGDPQECHYEECVVTTTPPSIQNGTYRFCCCSTDLCNVNFTENFPPPDTTPLSPPHSFNRDET	1.8
Y40R: BMPR-II ECD single-amino-acid-substitution mutant Y40R (protein, left off: TRX, N-terminal, cleaved | His6, C-terminal, state not stated) ASQNQERLCAFKDPRQQDLGIGESRISHENGTILCSKGSTCYGLWEKSKGDINLVKQGCWSHIGDPQECHYEECVVTTTPPSIQNGTYRFCCCSTDLCNVNFTENFPPPDTTPLSPPHSFNRDET	1.1
G47N: BMPR-II ECD naturally occurring single-amino-acid-substitution mutant G47N (protein, left off: TRX, N-terminal, cleaved | His6, C-terminal, state not stated) ASQNQERLCAFKDPYQQDLGINESRISHENGTILCSKGSTCYGLWEKSKGDINLVKQGCWSHIGDPQECHYEECVVTTTPPSIQNGTYRFCCCSTDLCNVNFTENFPPPDTTPLSPPHSFNRDET	2.9
